Provide the recorded IC50 for the entries that follow.
assayedSystem: ErbB2 insYVMA (HER2-YVMA, SEQ ID NO: 2) (Homo sapiens, UniProt P04626, INS775YVMA/P1170A)
Sequence (P04626 with tags, fused parts or gaps INS775YVMA/P1170A limits assumed): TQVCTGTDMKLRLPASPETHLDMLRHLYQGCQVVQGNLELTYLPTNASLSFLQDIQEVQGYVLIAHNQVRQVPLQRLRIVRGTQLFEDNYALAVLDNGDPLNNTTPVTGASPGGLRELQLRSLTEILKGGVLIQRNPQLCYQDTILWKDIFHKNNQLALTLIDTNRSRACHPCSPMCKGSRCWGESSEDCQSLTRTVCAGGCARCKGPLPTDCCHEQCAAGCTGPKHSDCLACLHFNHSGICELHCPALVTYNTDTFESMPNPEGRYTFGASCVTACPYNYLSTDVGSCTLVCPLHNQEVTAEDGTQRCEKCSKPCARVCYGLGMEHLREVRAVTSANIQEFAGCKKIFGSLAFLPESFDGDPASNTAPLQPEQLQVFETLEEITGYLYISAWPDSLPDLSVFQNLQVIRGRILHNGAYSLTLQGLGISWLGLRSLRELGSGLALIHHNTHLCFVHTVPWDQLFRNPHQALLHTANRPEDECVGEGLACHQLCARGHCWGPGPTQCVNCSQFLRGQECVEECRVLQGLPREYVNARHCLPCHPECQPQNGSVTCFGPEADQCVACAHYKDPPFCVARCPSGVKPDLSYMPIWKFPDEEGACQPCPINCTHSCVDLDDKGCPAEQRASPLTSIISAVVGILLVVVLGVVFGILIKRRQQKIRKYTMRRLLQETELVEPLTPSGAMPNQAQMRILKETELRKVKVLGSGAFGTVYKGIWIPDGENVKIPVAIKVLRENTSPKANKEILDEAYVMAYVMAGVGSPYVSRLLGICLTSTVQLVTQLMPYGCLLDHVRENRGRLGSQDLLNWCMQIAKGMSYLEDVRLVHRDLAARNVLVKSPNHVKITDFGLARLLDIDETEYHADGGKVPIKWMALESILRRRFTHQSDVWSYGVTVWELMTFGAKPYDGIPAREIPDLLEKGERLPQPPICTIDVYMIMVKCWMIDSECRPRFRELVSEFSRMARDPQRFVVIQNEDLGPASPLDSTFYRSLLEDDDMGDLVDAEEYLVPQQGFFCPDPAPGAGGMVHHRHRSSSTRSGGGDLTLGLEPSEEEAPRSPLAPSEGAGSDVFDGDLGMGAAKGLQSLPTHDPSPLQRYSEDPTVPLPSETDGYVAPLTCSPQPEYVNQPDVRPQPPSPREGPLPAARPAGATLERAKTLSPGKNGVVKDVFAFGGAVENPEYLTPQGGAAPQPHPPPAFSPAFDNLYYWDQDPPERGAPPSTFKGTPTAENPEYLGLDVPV
methodSummary: biochemical
assaySetup: ErbB2 insYVMA enzyme assay; read-out: Assay 1 IC50
# value in nM; strip the unit string

For COC[C@H](O)CN(C)c1ncc2ncnc(Nc3ccc(Oc4ccn5ncnc5c4)c(Cl)c3)c2n1 , what is its reported IC50?
27.5

For Cc1cc(Nc2ncnc3cnc(N4CCOC5(CC5)C4)nc23)ccc1Oc1ccc2c(c1)ncn2C , what is its reported IC50?
62.5

For CCNc1ncc2ncnc(Nc3ccc(Oc4ccc5c(ccn5C)c4)c(C)c3)c2n1 , what is its reported IC50?
12.1

For Clc1cc(Nc2ncnc3cnc(N4C[C@H]5C[C@@H]4CO5)nc23)ccc1Oc1ccn2ncnc2c1 , what is its reported IC50?
42.8

For Cc1cc(Nc2ncnc3cnc(N4C5CCC4COC5)nc23)ccc1Oc1ccc2c(c1)ncn2C , what is its reported IC50?
29.7

For Cc1cc(Nc2ncnc3cnc(N4CC(C)CS4(=O)=O)nc23)ccc1Oc1ccc2c(c1)ncn2C (stereo not shown) , what is its reported IC50?
21.3

For Cc1cc(Nc2ncnc3cnc(N4CCCC4=O)nc23)ccc1Oc1ccn2ncnc2c1 , what is its reported IC50?
97.7

For Cc1cc(Nc2ncnc3cnc(O[C@@H]4CNCC4(F)F)nc23)ccc1Oc1ccc2c(c1)ncn2C , what is its reported IC50?
39.1

For Cc1cc(Nc2ncnc3cnc(N4CCC(C)(O)CC4)nc23)ccc1Oc1ccc2c(c1)ncn2C , what is its reported IC50?
29.2

For Clc1cc(Nc2ncnc3cnc(N4C[C@@H]5[C@H](C4)[C@@H]4CC[C@H]5O4)nc23)ccc1Oc1ccn2ncnc2c1 , what is its reported IC50?
28.2

For Cc1cc(Nc2ncnc3cnc(N4CC[C@H](C)C4=O)nc23)ccc1Oc1ccc2c(c1)ncn2C , what is its reported IC50?
46.3

For CC(=O)N1CCN(c2ncc3ncnc(Nc4ccc(Oc5ccc6c(c5)ncn6C)c(C)c4)c3n2)CC1 , what is its reported IC50?
18.2

For Cc1cc(Nc2ncnc3cnc(N(C)[C@H]4CCOC4)nc23)ccc1Oc1ccc2c(c1)ncn2C , what is its reported IC50?
21

For Cc1cc(Nc2ncnc3cnc(N4CC[C@H]4C(C)(C)O)nc23)ccc1Oc1ccn2ncnc2c1 , what is its reported IC50?
57.9

For Cc1cc(Nc2ncnc3cnc(N4CCC(C)(O)CC4)nc23)ccc1Oc1ccn2ncnc2c1 , what is its reported IC50?
20.6

For Cc1c(Oc2ccn3ncnc3c2)ccc(Nc2ncnc3cnc(N(C)CC4(O)CCC4)nc23)c1F , what is its reported IC50?
39.3
